# assayedTarget: Gal-3^CRD (Homo sapiens)
# Sequence (P17931 112-250): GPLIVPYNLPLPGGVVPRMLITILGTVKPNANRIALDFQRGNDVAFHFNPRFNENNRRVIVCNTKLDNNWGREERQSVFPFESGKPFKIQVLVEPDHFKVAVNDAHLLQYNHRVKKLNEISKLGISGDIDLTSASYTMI
observedProperty: pKd
Units for pKd: none; it is -log10 of a concentration expressed in mol/L.

Query :: Lab note: need pKd with Gal-3^CRD (Homo sapiens) for entry OC[C@H]1O[C@@H]([Se][C@@H]2O[C@H](CO)[C@H](O)[C@H](O)[C@H]2O)[C@H](O)[C@@H](O)[C@H]1O [SeDG] , please look it up.
Result :: 4.69

----------
# assayedTarget: UniProt:P09382
# Sequence (P09382 whole entry): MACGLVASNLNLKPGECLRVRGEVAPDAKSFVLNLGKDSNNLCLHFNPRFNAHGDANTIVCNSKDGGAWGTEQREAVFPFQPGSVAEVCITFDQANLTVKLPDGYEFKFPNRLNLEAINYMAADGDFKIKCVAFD
observedProperty: Kd (µM)
Output spec: scalar in µM, unitless text.

Query :: Lab note: need Kd with UniProt:P09382 for entry OC[C@H]1O[C@@H]([Se][C@@H]2O[C@H](CO)[C@H](O)[C@H](O)[C@H]2O)[C@H](O)[C@@H](O)[C@H]1O , please look it up.
Result :: 23.7

The origin of these recorded values is paper PMC9368490.
